- Study System: Peroxisome proliferator-activated receptor gamma (Homo sapiens) (UniProt P37231)
- Sequence (P37231 whole entry, looked up): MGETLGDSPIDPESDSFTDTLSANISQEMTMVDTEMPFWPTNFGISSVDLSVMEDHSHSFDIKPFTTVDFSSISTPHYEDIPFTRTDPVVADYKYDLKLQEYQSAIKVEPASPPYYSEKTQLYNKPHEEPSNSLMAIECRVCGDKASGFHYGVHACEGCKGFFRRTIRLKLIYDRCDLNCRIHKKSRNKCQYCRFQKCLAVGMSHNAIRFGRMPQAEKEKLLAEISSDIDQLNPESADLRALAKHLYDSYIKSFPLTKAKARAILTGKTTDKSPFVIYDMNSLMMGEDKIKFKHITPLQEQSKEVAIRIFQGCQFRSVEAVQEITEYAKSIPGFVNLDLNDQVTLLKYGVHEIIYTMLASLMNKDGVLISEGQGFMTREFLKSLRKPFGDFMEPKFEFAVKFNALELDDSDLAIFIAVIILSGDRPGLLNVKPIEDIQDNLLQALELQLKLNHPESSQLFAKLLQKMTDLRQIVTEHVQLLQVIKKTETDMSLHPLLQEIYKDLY
- Assay Notes: qHTS assay to identify small molecule antagonists of the peroxisome proliferator-activated receptor gamma (PPARg) signaling pathway (AID 743191); note: nearly all actives have a fitted effect of over 30% in size
- Test Conditions: HEK293H PPARg-UAS-bla, beta-lactamase ratio, antagonist, 17 h; series mostly up to 62.6 µM
Results filed as inconclusive are left out. Activity calls are given as the source filed them. Calls come from the whole dose curve.
Outcomes: active, inactive

[
  {
    "Molecule": "ClCCOCCOCCCl",
    "Label Value": "inactive"
  },
  {
    "Molecule": "CCOCC(O)COc1ccc(NC(=O)CC[S+](C)C)cc1 (stereo not given)",
    "Label Value": "inactive"
  },
  {
    "Molecule": "CC(C)Cc1ccc(C(C)C(=O)OCc2ccccn2)cc1 (stereo not given)",
    "Label Value": "inactive"
  },
  {
    "Molecule": "CC(C)(COC(=O)c1ccccc1)COC(=O)c1ccccc1",
    "Label Value": "inactive"
  },
  {
    "Molecule": "CCCCC(CC)COC(=O)COc1ccc(Cl)cc1Cl (stereo not given)",
    "Label Value": "inactive"
  },
  {
    "Molecule": "COc1ccc2cccc(CCNC(C)=O)c2c1",
    "Label Value": "inactive"
  },
  {
    "Molecule": "C=C(C)C(=O)OCC",
    "Label Value": "inactive"
  },
  {
    "Molecule": "COc1ccnc(CS(=O)c2nc3ccc(OC(F)F)cc3[nH]2)c1OC (stereo not given)",
    "Label Value": "inactive"
  },
  {
    "Molecule": "CCN(CC)CCOC(=O)C(Cc1cccc2ccccc12)CC1CCCO1 (stereo not given)",
    "Label Value": "inactive"
  },
  {
    "Molecule": "O=C1c2ccccc2S(=O)(=O)N1CCCCN1CCN(c2ncccn2)CC1",
    "Label Value": "inactive"
  },
  {
    "Molecule": "CCn1cc(C(=O)O)c(=O)c2cnc(N3CCNCC3)nc21",
    "Label Value": "inactive"
  },
  {
    "Molecule": "CCO[Si](CCCCl)(OCC)OCC",
    "Label Value": "inactive"
  },
  {
    "Molecule": "CC1CCC(=O)C1=O (stereo not given)",
    "Label Value": "inactive"
  },
  {
    "Molecule": "CCCCCCOC(=O)NC(=N)c1ccc(NCc2nc3cc(C(=O)N(CCC(=O)OCC)c4ccccn4)ccc3n2C)cc1",
    "Label Value": "active"
  },
  {
    "Molecule": "Cc1cccc(C)c1NC(=O)CN(CC(=O)O)CC(=O)O",
    "Label Value": "inactive"
  },
  {
    "Molecule": "Nc1ccc([N+](=O)[O-])c(C(F)(F)F)c1",
    "Label Value": "inactive"
  },
  {
    "Molecule": "O=C(c1ccc(F)cc1)C1CCN(CCn2c(=S)[nH]c3ccccc3c2=O)CC1",
    "Label Value": "inactive"
  },
  {
    "Molecule": "CCN(CC)CCNC(=O)c1cc(Br)c(N)cc1OC",
    "Label Value": "inactive"
  },
  {
    "Molecule": "O=C(O)C1(C(=O)O)CCC1.[NH2-].[NH2-].[Pt+2]",
    "Label Value": "inactive"
  },
  {
    "Molecule": "O=C(OCCc1ccccc1)c1ccccc1",
    "Label Value": "inactive"
  },
  {
    "Molecule": "COc1cc2nc(N(C)CCCNC(=O)C3CCCO3)nc(N)c2cc1OC (stereo not given)",
    "Label Value": "inactive"
  },
  {
    "Molecule": "CCOc1ccc(O)cc1",
    "Label Value": "inactive"
  },
  {
    "Molecule": "CCCCCCCCCCCc1ccccc1",
    "Label Value": "inactive"
  },
  {
    "Molecule": "C[C@H](CCC(=O)O)[C@H]1CC[C@H]2[C@@H]3CC[C@@H]4C[C@H](O)CC[C@]4(C)[C@H]3C[C@H](O)[C@]12C",
    "Label Value": "inactive"
  },
  {
    "Molecule": "CCCCCCCCCCO[C@@H]1O[C@H](CO)[C@@H](O)[C@H](O)[C@H]1O",
    "Label Value": "inactive"
  }
]
